experiment_description: Permeability (bidirectional transport) of flavonoids in Caco-2 cell monolayers
Format: in vitro ADME
applied_conditions: human, Caco-2, apical to basolateral, incubation 60 min, 37 °C, D-Hank's pH 7.4, mean ± SD, n = 3–6
Parameter threshold = 10 ×10⁻⁶ cm/s. Response is yes when Papp A→B at 60 min, 40 μM meets or exceeds it, else no.

Here are 4 compounds together with their reported answers.
1. O=C(/C=C/c1ccc(O)cc1)c1ccc(O)cc1O	yes
2. O=c1c(-c2ccc(O)cc2)coc2cc(O)ccc12	yes
3. COc1ccc(-c2coc3cc(O)ccc3c2=O)cc1	yes
4. O=C1C[C@@H](c2ccc(O)cc2)Oc2cc(O)ccc21	yes

Query block: Please indicate if the recorded Papp A→B at 60 min, 40 μM for O=c1cc(-c2ccccc2)oc2cc(O)cc(O)c12 meets or exceeds 10 ×10⁻⁶ cm/s.
Result block: no

Query block: Please indicate if the recorded Papp A→B at 60 min, 40 μM for C[C@@H]1O[C@@H](O[C@H]2[C@H](Oc3cc(O)c4c(c3)O[C@H](c3ccc(O)cc3)CC4=O)O[C@H](CO)[C@@H](O)[C@@H]2O)[C@H](O)[C@H](O)[C@H]1O meets or exceeds 10 ×10⁻⁶ cm/s.
Result block: no

Query block: Please indicate if the recorded Papp A→B at 60 min, 40 μM for O=c1cc(-c2ccc(O)cc2)oc2c([C@@H]3OC[C@H](O)[C@H](O)[C@H]3O)c(O)c([C@@H]3O[C@H](CO)[C@@H](O)[C@H](O)[C@H]3O)c(O)c12 [Compound 8, Schaftoside] meets or exceeds 10 ×10⁻⁶ cm/s.
Result block: no

Query block: Please indicate if the recorded Papp A→B at 60 min, 40 μM for O=c1c(-c2ccc(O)cc2)coc2c([C@@H]3O[C@H](CO)[C@@H](O)[C@H](O)[C@H]3O)c(O)ccc12 meets or exceeds 10 ×10⁻⁶ cm/s.
Result block: no

Query block: Please indicate if the recorded Papp A→B at 60 min, 40 μM for O=c1c(O)c(-c2ccc(O)cc2)oc2cc(O)cc(O)c12 meets or exceeds 10 ×10⁻⁶ cm/s.
Result block: no

Query block: Please indicate if the recorded Papp A→B at 60 min, 40 μM for C[C@@H]1O[C@@H](Oc2c(-c3ccc(O)c(O)c3)oc3cc(O)cc(O)c3c2=O)[C@H](O)[C@H](O)[C@H]1O meets or exceeds 10 ×10⁻⁶ cm/s.
Result block: no

Query block: Please indicate if the recorded Papp A→B at 60 min, 40 μM for O=c1cc(-c2ccccc2)oc2ccccc12 meets or exceeds 10 ×10⁻⁶ cm/s.
Result block: yes

Query block: Please indicate if the recorded Papp A→B at 60 min, 40 μM for O=c1c(O)c(-c2ccc(O)cc2O)oc2cc(O)cc(O)c12 meets or exceeds 10 ×10⁻⁶ cm/s.
Result block: no

Query block: Please indicate if the recorded Papp A→B at 60 min, 40 μM for COc1ccc(-c2coc3cc(O)cc(O)c3c2=O)cc1 meets or exceeds 10 ×10⁻⁶ cm/s.
Result block: yes

Query block: Please indicate if the recorded Papp A→B at 60 min, 40 μM for COc1cc(-c2oc3cc(O)cc(O)c3c(=O)c2O)ccc1O meets or exceeds 10 ×10⁻⁶ cm/s.
Result block: no
